Data provenance is patent US11834453B2.

Provide the reported efflux ratio at 2 h, 1 μM of each item.
# target desc: BCRP (Homo sapiens (Human))
# Sequence (Q9UNQ0 whole entry): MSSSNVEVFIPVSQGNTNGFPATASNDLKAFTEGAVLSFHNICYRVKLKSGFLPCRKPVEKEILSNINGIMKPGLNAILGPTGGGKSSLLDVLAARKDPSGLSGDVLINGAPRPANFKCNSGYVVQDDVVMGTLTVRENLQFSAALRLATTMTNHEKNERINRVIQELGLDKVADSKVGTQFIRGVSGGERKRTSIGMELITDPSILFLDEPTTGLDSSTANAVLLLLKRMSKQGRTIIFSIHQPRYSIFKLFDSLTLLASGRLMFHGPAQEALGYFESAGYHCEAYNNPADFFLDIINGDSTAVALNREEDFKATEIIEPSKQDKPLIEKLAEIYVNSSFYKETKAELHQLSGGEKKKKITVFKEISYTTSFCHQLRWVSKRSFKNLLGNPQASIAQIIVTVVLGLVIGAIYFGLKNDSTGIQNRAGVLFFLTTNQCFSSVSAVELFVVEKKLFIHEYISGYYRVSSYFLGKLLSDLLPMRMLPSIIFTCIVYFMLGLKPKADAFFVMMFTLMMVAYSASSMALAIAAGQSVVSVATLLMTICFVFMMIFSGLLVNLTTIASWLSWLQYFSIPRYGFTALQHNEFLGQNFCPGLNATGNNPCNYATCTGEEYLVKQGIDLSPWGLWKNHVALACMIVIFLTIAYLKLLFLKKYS
# assay method text: BCRP transfected MDCKII canine Mdr1 knockout permeability/efflux, Assay 9
# test parameters: dog
The reply should be a number, written without any unit.

# get_value(readout='efflux ratio at 2 h, 1 μM', item= Cc1cc(Nc2ncnc3cnc(N4CCC45COC5)nc23)ccc1Oc1cc(F)c2c(c1)ncn2C )
0.9

Record: Cc1cc(Nc2ncnc3cnc(N4C[C@H](O)C5(CC5)C4)nc23)ccc1Oc1ccc2c(c1)ncn2C
31.4

Record: Cc1cc(Nc2ncnc3cnc(N4CC5(C4)CC(O)(C(F)F)C5)nc23)ccc1Oc1ccc2c(c1)ncn2C
36.8
